# condition: PAMPA
Where a SMILES comes first, the peptide text is derived from it. [ ]: non-standard residue; d: D form. NMeF = CN[C@@H](Cc1ccccc1)C(=O)O; dNMeF = CN[C@H](Cc1ccccc1)C(=O)O; NMeL = CN[C@@H](CC(C)C)C(=O)O
measured-parameter: PAMPA_R3
Provide a numeric answer; units are not to be included.

*Q* Given CC(C)C[C@H]1NC(=O)[C@@H]2CCCN2C(=O)[C@H]2CCCN2C(=O)[C@H](C(C)C)NC(=O)[C@@H](CC(C)C)NC(=O)[C@@H]2CCCN2C(=O)[C@H]2CCCN2C(=O)[C@H](C(C)C)NC1=O (single isomer, unassigned) [D8.12 p1, DLEU VAL DPRO PRO DLEU VAL DPRO PRO] , state its recorded PAMPA_R3.
*A* 1.92E-07

*Q* Given CC[C@@H](C)[C@H]1NC(=O)[C@H](CC(C)C)N(C)C(=O)[C@H]2CCCN2C(=O)[C@@H](Cc2ccccc2)N(C)C(=O)[C@@H](Cc2ccccc2)N(C)C(=O)[C@H](CC(C)C)N(C)C(=O)[C@@H](C(C)C)NC(=O)[C@@H]2CCCN2C(=O)[C@H](C)NC1=O [Design D9.9] (cyclo(AP[dV][NMeL][dNMeF][dNMeF][dP][NMeL][dI])) , state its recorded PAMPA_R3.
*A* 2.31E-07

*Q* Given CC[C@@H](C)[C@H]1NC(=O)[C@H](CC(C)C)N(C)C(=O)[C@H]2CCCN2C(=O)[C@H](CC(C)C)NC(=O)[C@H](Cc2ccccc2)N(C)C(=O)CN(C)C(=O)[C@@H](C(C)C)NC(=O)[C@H](C)NC(=O)[C@H]2CCCN2C(=O)[C@@H]2CCCN2C1=O (single isomer, unassigned) [Design D10.58.p1] , state its recorded PAMPA_R3.
*A* 4.44E-07

*Q* Given CC(C)C[C@@H]1NC(=O)[C@H](C)NC(=O)[C@@H]2CCCN2C(=O)[C@H]2CCCN2C(=O)[C@H](Cc2ccccc2)NC(=O)[C@H]2CCCN2C(=O)[C@@H](Cc2ccccc2)N(C)C(=O)[C@@H]2CCCN2C(=O)[C@@H](C)NC(=O)[C@H](CC(C)C)NC1=O [Design D10.49] (cyclo(ALL[dA]P[dNMeF][dP]F[dP]P)) , state its recorded PAMPA_R3.
*A* 1.35E-07

*Q* Given C[C@H]1NC(=O)[C@@H](Cc2ccccc2)NC(=O)[C@H](Cc2ccccc2)N(C)C(=O)[C@H](Cc2ccccc2)N(C)C(=O)[C@@H](Cc2ccccc2)NC(=O)[C@H]2CCCN2C(=O)CNC(=O)[C@@H](C)NC(=O)[C@@H]2CCCN2C(=O)[C@@H](Cc2ccccc2)NC1=O [Design D10.62] (cyclo(G[dP][dF][NMeF][NMeF][dF][dA][dF]P[dA])) , state its recorded PAMPA_R3.
*A* 4.48E-06
